Parameter IC50: see the listing below.
Biological target: Interleukin-1 receptor-associated kinase 4 (Homo sapiens, UniProt Q9NWZ3)
Sequence (Q9NWZ3 whole entry): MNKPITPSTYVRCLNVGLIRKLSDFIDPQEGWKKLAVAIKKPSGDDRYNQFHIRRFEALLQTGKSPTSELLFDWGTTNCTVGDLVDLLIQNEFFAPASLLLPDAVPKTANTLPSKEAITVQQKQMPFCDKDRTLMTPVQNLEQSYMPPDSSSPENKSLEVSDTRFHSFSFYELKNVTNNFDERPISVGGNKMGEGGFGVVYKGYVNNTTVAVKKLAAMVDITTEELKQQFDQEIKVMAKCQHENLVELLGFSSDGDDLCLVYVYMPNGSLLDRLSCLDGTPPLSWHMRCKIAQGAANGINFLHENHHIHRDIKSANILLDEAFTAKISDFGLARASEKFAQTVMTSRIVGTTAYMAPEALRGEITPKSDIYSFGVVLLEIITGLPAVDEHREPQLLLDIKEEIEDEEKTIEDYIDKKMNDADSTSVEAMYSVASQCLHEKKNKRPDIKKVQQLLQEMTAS
Test: Inhibition of recombinant human full-length His-tagged IRAK4 expressed in baculovirus infected insect cells using KKARFSRFAGSSPSQSSMVAR as substrate preincubated for 15 mins followed by substrate addition and measured after 2 hrs by LC-MS/MS analysis
// units = nM; emit number, no label

>  <Smiles Record>
COc1cc2nn([C@H]3CC[C@H](N(C)C(=O)[C@@H](C)O)CC3)cc2cc1C(=O)Nc1cnc2cccnn12

>  <Subject Of Test>
Interleukin-1 receptor-associated kinase 4 (Homo sapiens, UniProt Q9NWZ3)

>  <Units Symbol>
nM

>  <IC50>
0.2

$$$$

Lookup: Return the recorded IC50 value; entry: COc1cc2nn([C@H]3CC[C@@]4(CC3)CC(=O)N(C)C4)cc2cc1C(=O)Nc1cnc2cccnn12
Found: 0.2
